Listed compounds paired with reported EC50
target: 5-hydroxytryptamine receptor 2C (Homo sapiens, UniProt P28335); assay: Agonist activity at human 5HT2C receptor stably expressed in Flp-In-T-REx-293 cells assessed as increase in Gq-mediated calcium flux by Fluo-4 direct dye based FLIPR Tetra assay; format: functional, cell-based; conditions: read-out: EC50
Write it as a number; the unit nM goes unstated.

compound | EC50 [nM]
Cc1noc(C)c1C1NCCc2c1[nH]c1ccc(F)cc21 (centres undefined) | 50.1
Oc1ccc(Br)cc1C1NCCc2c1[nH]c1ccc(F)cc21 (centres undefined) | 376
Oc1ccc2[nH]c3c(c2c1)CCNC3c1cc(Cl)ccc1O (centres undefined) | 754
Oc1ccc(C2NCCc3c2[nH]c2ccc(O)cc32)cc1 (centres undefined) | 152
Fc1ccc2[nH]c3c(c2c1)CCNC3c1nccs1 (centres undefined) | 1260
Clc1ccc2[nH]c3c(c2c1)CCNC3C1CCOCC1 (centres undefined) | 295
Cc1ccc(C2NCCc3c2[nH]c2ccc(F)cc32)cc1 (centres undefined) | 2060
Oc1cccc(C2NCCc3c2[nH]c2ccc(F)cc32)c1 (centres undefined) | 130

Query: Request - read-out EC50 | tested on 5-hydroxytryptamine receptor 2C (Homo sapiens, UniProt P28335) | compound COc1ccc(C2NCCc3c2[nH]c2ccc(F)cc32)c(O)c1 (centres undefined)
Response: 1.02

Query: Give recorded EC50 with 5-hydroxytryptamine receptor 2C (Homo sapiens, UniProt P28335) for the following compound: Oc1cc(Cl)ccc1C1NCCc2c1[nH]c1ccc(Cl)cc21 (centres undefined)
Response: 47

Query: Find the measured EC50: item Clc1ccc2[nH]c3c(c2c1)CCNC3C(c1ccccc1)c1ccccc1 (centres undefined) , target or system 5-hydroxytryptamine receptor 2C (Homo sapiens, UniProt P28335).
Response: 3240

Query: 5-hydroxytryptamine receptor 2C (Homo sapiens, UniProt P28335) / EC50 / COc1ccccc1C1NCCc2c1[nH]c1ccc(F)cc21 (centres undefined) : value?
Response: 75.4

Query: GET /values?readout=EC50&system=5-hydroxytryptamine receptor 2C (Homo sapiens, UniProt P28335)&item= Oc1c(Br)cccc1C1NCCc2c1[nH]c1ccc(Cl)cc21 (centres undefined)
Response: 68.6

Query: What is its EC50 for 5-hydroxytryptamine receptor 2C (Homo sapiens, UniProt P28335)? Entry: Oc1ccc2[nH]c3c(c2c1)CCNC3c1cc(Br)ccc1O (centres undefined)
Response: 194

Query: Which EC50 is reported with 5-hydroxytryptamine receptor 2C (Homo sapiens, UniProt P28335) for this entry: Fc1ccc2[nH]c3c(c2c1)CCNC3C1CCCCC1 (centres undefined) ?
Response: 20.4

----------
Each entry below carries its reported EC50.
Target: 5-hydroxytryptamine receptor 2C (Homo sapiens, UniProt P28335)
Sequence (P28335 whole entry): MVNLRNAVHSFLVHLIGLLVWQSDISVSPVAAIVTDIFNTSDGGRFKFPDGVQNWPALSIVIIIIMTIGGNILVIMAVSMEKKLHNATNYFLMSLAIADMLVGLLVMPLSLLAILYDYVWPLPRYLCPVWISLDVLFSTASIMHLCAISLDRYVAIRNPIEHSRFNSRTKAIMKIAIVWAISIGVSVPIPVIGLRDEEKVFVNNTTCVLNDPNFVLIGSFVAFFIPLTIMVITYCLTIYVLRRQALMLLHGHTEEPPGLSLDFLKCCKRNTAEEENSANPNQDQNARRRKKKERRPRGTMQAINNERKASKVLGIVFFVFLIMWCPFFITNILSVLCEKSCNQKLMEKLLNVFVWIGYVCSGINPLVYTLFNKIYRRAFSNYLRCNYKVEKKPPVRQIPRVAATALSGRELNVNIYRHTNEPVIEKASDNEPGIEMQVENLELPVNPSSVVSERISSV
Assay: Agonist activity at human 5HT2C receptor stably expressed in Flp-In-T-REx-293 cells assessed as increase in Gq-mediated calcium flux by Fluo-4 direct dye based FLIPR Tetra assay
Type: functional, cell-based
Conditions: read-out: EC50
# value in µM; strip the unit string

# example entries with known answers
molecule | experimentalSystem | dataValue
Cc1ccc(C2NCCc3c2[nH]c2ccc(Cl)cc32)cc1 (stereo not given) | 5-hydroxytryptamine receptor 2C (Homo sapiens, UniProt P28335) | 0.0625
Oc1ccc2[nH]c3c(c2c1)CCNC3c1cc(F)ccc1O (stereo not given) | 5-hydroxytryptamine receptor 2C (Homo sapiens, UniProt P28335) | 0.077
COc1ccc(C2NCCc3c2[nH]c2ccc(Cl)cc32)cc1OC (stereo not given) | 5-hydroxytryptamine receptor 2C (Homo sapiens, UniProt P28335) | 0.123
Oc1cc(Br)ccc1C1NCCc2c1[nH]c1ccc(F)cc21 (stereo not given) | 5-hydroxytryptamine receptor 2C (Homo sapiens, UniProt P28335) | 0.095

Now for another entry.
Query: Consider the molecule COc1ccc(C2NCCc3c2[nH]c2ccc(F)cc32)c(OC)c1 (stereo not given) and give its measured EC50.
Response: 0.159
